- tested target: T1, Processed stabilized hMPV PreF trimer (115BV) (human metapneumovirus, strain B2)
- T1 construct: also called Processed hMPV PreF trimer; processed PreF
- procedure summary: BLI, mAb on anti-human Fc sensor
Dear colleague, classification is by Octet binding response, with ranges listed here: lo = under 0.08 nm, med = from 0.08 nm up to 0.2 nm, hi = 0.2 nm and over

Some solved entries appear below for comparison.
[[record]]
binder = "M2D02 (antibody, V domains shown, IgG) VH: QVQLVQSGAEVKKPGSSVKVSCKASGGTLTRYTISWVRQAPGQGLEWMGRIIPFLDIANYAPRFQGRVTMTADKSTSTAYMELSSLTSQDTAIYYCARDHSGNYFDLWGQGTLVTVSS VL: EIVMTQSPATLSVSPGERATLSCRASQSVTSNLAWYQRKPGQAPRLLIYGASTGATDIPGRFSGSGSGTEFTLTISGLQSEDFAVYYCQQYDHWPRTFGQGTKVEIK"
class_name = "lo"

[[record]]
binder = "M3A04 (antibody, V domains shown, IgG) VH: QVQLVESGGGVVQPGRSLRLSCAASGLTFSTYVMHWVRQAPGKGLEWVAVISYDGTNEHYADSVKGRFTISRDNSKNTLYLQMNSLRPEDTAVYYCARGTADYDVWSGSAWGGFDYWGQGTLVTVSS VL: DIQMTQSPSSLSASVGDRVTITCRASQSISSYLNWYQQKPGKAPKLLMYTVSSLPSGVPSRFSGSGSGTDFTLTISSLQPEDFATYYCQQSYNIPYTFGQGTKLEIK"
class_name = "med"

[[record]]
binder = "M2F01 (antibody, V domains shown, IgG) VH: QVQLVQSGAEVKKPGASVKVSCKASEDTFTNYYMHWVRQAPGQGLEWMGIINPSGGSTDYAQKFQGRVTMTRDTSTSTVYMELSSLRSEDTAMYYCARQGRTAACDYWGQGTLVTVSS VL: DIQMTQSPSSVSASVGDRVTITCRASQGIRSWLAWYQQKPGKAPKLLIYAASTLQSGVPSRFSGSGSGTDFTLTISSLQPEDFATYYCQQSNSFSLFTFGPGTRVDIK"
class_name = "lo"

[[record]]
binder = "M2C11 (antibody, V domains shown, IgG) VH: QVQLVQSGAEVRKPGASVKVSCKASGYTFTSHDINWVRQAPGQGLEWMGWMNPNSDTTGYAQKFQGRVTMARDISMSTAYMELSSLTSEDTAVYYCARGRHNYYTNGPTRDGFDIWGQGTMVTVSS VL: SYELTQPPSVSVSPGQTATITCSGDDLGNQYANWFQQRPGQSPVLVIYQDNKRPSGIPERFSGSSSGNTATLTISGTQPLDEADYYCQAWDSRTYVFGTGTKVTVL"
class_name = "hi"

[[record]]
binder = "M2A05 (antibody, V domains shown, IgG) VH: QITLKESGPTLVKPTQTLTLTCTVSGFSLSANSVGVAWFRQPPGKAPEWLGVIYWDDDKRFSPSLKTRLSITKDASTSQVVLRLTNVSPLDTATYYCVRKHYDLLQWGQGAPVTVSS VL: EIVLTQSPGTLSLSPGEGATLSCRASRSVNSDYIAWYQHKPGLAPRLLIYAASTRATDIPDRFRADVSGTDFTLTIDRLEPDDFAVYYCQQYGSAVWTFGQGTRVEVK"
class_name = "hi"


[in] Determine which band this binder sits in: M2C07 (antibody, V domains shown, IgG) VH: QVQLQESGPGLVAPSQTLSLICDVSGDSVTSGAYSWSWIRQHPVKGLEWIAYINYSGRTNYNPSLQSRLVISVDRSKNQFSLRLSSVTAADTAVYYCARANVVGYSGFYFDYWGQGTLVAVSS VL: DIQMTQSPSSLSASVGDTVTITCRASQSVGAYLNWYQQKPGKAPKLLVFAGSSLQTGVPSRFSGRGSRTEFTLTITNLQREDFASYYCQQSLGDFLTFGGGTKVEIK
[out] hi

[in] Determine which band this binder sits in: M3D05 (antibody, V domains shown, IgG) VH: QVQLVQSGAEVKQPGASVKVSCKASGYTFSGYYIQWVRQAPGQGLEWMGWINPNSGGTNFAQKFQGRVTMTSDTSTSAAYMELSSLRSDDTAVYYCVRGQQLTRQYYFGMDVWGQGTTVTVSS VL: QSVLTQPPSVSGAPGQRVIISCSGSSSNIRSNAVNWYQQLPGKAPKLLIFYDGLLPSGVSDRFSGSKTGNSASLAISGLQSEDEADYYCAAWDDSLNGPVFGGGTKLTVL
[out] med

[in] Determine which band this binder sits in: M2E07 (antibody, V domains shown, IgG) VH: EVQLVESGGGLVQTGGSLRLACAASGFTFSSYAMSWVRQAPGKGLEWVSTITESGDDAYYADSVKGRLTISRDNSKNTLFLHLNGLRSEDTARYYCAKDMGLYKSSWYGNFFYYYYMDVWGEGTTVTVSS VL: QSALTQPASVSGSPGQSITISCTGSSSNIGSFDLISWYQQHPGKAPKFIIYEGDKRPSGVSYRFSGSKSGSTASLTISGLQAEDEAYYYCCSYARSRTLVFGGGTKVTVL
[out] lo
